Please go through the items and note down their Kd.
target under test: T1, human ALK on the surface of NB1 cells (human, UniProt Q9UM73 21-1620)
T1 construct: ALK of NB1 cells; also called cell surface hALK; NB1 (human)
T1 sequence (Q9UM73 21-1620): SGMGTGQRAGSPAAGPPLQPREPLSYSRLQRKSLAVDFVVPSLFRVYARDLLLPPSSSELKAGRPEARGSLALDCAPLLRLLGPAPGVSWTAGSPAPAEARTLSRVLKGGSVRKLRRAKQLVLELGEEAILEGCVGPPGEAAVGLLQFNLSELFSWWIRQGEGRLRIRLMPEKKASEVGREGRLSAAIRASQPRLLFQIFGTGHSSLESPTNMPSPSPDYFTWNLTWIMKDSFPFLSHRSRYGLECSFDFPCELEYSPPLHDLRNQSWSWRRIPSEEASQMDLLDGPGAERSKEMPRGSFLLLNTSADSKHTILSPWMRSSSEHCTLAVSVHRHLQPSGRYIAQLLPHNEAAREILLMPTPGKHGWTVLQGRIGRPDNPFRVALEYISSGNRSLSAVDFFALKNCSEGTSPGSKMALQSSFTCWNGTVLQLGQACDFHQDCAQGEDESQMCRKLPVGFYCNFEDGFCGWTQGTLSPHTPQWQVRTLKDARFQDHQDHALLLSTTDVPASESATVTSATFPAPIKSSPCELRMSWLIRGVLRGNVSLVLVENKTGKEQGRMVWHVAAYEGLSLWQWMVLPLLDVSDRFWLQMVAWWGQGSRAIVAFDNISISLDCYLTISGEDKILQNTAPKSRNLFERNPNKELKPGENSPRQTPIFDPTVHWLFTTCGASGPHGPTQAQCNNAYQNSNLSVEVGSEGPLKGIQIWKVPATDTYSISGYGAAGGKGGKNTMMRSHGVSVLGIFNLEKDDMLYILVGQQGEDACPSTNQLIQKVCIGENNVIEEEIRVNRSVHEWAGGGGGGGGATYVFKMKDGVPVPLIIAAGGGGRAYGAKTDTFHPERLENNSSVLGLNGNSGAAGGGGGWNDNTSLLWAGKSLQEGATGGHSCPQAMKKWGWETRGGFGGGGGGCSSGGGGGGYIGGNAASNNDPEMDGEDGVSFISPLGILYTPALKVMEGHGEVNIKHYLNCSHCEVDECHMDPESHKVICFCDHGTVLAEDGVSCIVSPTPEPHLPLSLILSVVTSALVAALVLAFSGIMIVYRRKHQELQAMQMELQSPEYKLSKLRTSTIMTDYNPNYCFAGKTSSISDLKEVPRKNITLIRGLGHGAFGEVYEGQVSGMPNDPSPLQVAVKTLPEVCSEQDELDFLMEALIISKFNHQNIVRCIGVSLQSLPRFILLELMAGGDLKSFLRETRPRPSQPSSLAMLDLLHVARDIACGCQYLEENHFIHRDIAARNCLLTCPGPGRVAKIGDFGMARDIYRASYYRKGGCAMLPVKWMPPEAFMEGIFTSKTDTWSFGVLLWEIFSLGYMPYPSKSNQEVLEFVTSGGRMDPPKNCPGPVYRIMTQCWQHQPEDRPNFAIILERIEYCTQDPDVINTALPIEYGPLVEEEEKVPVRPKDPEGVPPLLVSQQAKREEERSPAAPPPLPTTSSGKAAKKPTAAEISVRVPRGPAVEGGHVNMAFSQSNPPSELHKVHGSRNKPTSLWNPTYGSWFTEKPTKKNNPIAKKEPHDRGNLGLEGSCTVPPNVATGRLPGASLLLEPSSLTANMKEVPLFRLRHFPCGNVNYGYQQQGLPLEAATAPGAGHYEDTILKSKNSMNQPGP
procedure text: flow cytometry titration on NB1 cells, steady state
// units = nM; emit number, no label

Entry Ab327 (antibody, V domains shown, rodent hybridoma mAb) VH: DVKLVESGEGLVKPGGSLKLSCAASGFTFSSYAMSWVRQTPEKRLEWVTYISSGGDYIYYADTVKGRFTISRDNARNTLYLQMSSLKSEDTAMYYCTRERIWLRRFFDVWGTGTTVTVSS VL: DIVMTQSQKFMSTSVGDRVSITCKASQNVGTAVAWYQLKPGQSPKLLIYSASNRFTGVPDRFTGSGSGTDFTLTISNMQSEDLADYFCQQYSSYPLTFGSGTKLEIKR — recorded Kd = 0.4

Kd for Ab330 (antibody, V domains shown, rodent hybridoma mAb) VH: EVQVVETGGGVVQPGKSLEITCATSGLTFSTAWMYWVRQSSDRRLEWIARIKDKSNKFASDYVESVRGRFTISRDDSRSSVYLQMNNLKEEDTATYYCTTSYGYAWGQGVMVTVSS VL: DIQMTQSPSSMSASLGDRVTITCQASQDIGNYLIWFQQKPGKSPRPLIYYATNLANGVPSRFSGSRSGSEYSLTITSLESEDMADYHCLQYKQHLTFGSGTKLEIER is 3.13

Per the records, this binder ( Ab322 (antibody, V domains shown, rodent hybridoma mAb) VH: QVQLQQSGAELAKPGASVKLSCKASGYTFTNYWMHWVKQRPGQGLEWIGYINPSSGYTKYNQKFKDKATLTADKSSSTAYMQLSSLTYEDSAVYYCARDYYGSSSWFAYWGQGTLVTVSA VL: DIVMTQSQRFMSTSVGDRVSVTCKASQNVGTNVAWYQQKPGQSPKALIYSASYRYSGVPDRFTGSGSGTDFTLTVSNVQSEDLAEYFCQQYNSYPYMYTFGGGTKLEIKR ) has Kd equal to 0.5

So, Ab332 (antibody, V domains shown, rodent hybridoma mAb) VH: EVQLQQSGPELVKPGTSVKISCKASGYTFTDYYMNWMKQSHGKSLEWIGDINPNNGVTSYNQKFKGKATLTVDKSSSTAYMELRSLTSEDSAVYYCAREDYGSNYFDYWGQGTTLTVSS VL: DIVLTQSPASLAVSLGQRATISCKASQSVDYDGDSYMNWYQQKPGQPPKLLIYAASNLESGIPARLSGSGSGTDFTLNIHPVEEEDAATYYCQQSNEDPPTFGGGTKLEIRR ? Its Kd was 1.55

Notebook: Ab331 (antibody, V domains shown, rodent hybridoma mAb) VH: EVQVVETGGGVVQPGKSLEITCATSGLTFSTAWMYWVRQSSDRRLEWIARIKDKSNNFASDYVESVRGRFTISRDDSRSSVYLQMNNLKEEDTATYYCTTSYGYAWGQGVMVTVSS VL: DIQMTQSPSSMSASLGDRITITCQASQDIGNYLIWFQQKPGKSPRPLIYYATNLANGVPSRFSGSRSGSEYSLTITSLESEDMADYHCLQYKQHLTFGSGTKLEIER , Kd read as 2.5
